experiment-notes: antimalarial activity against Dd2 strain (AID 2302);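 further: 0% = DMSO untreated growth and 100% = chloroquine plus artemisinin killed control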
settings: P. falciparum Dd2 in RBCs, LDH growth readout, 72 h; at 2 µM; stronger effect = higher value
Entry flag: T if growth inhibition reaches 90%; F if it does not.

1. Nc1nc(N)c2cc(CNc3ccc(Cl)c(Cl)c3)ccc2n1 | F
2. COc1cc2nc(NCc3ccc(S(N)(=O)=O)cc3)nc(Nc3ccc(Oc4ccccc4)cc3)c2cc1OC | T
3. COCC(C)n1c(SC(C)C(=O)Nc2cc([N+](=O)[O-])ccc2Cl)nc2ccccc2c1=O (configuration not stated) | T
4. CC(C)NC[C@@H](O)[C@H](Cc1ccccc1)NC(=O)c1cc2c3c(c1)c(C(C)C)cn3CCS(=O)(=O)N2C | T
5. CCc1c(C(=O)NC2CCC(N3CCC(c4ccccc4OC)CC3)CC2)[nH]c2ccc(Br)cc12 (configuration not stated) | T
6. O=C(Nc1ccc2c(c1)CCNCC2)Nc1ccc2ccccc2c1 | F
7. CC1c2cccc(O)c2CCN1CCc1ccc(Cl)c(Cl)c1 (configuration not stated) | T

* * *

experiment-notes: inhibition of 3D7 malaria parasite growth – strain 3D7 (AID 2306);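 further: 0% = DMSO wells and 100% = chloroquine plus artemisinin control wells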
settings: P. falciparum 3D7 erythrocytic growth, LDH absorbance, 72 h; at 2 µM; stronger effect = higher value
assay-endpoint: growth inhibition (%)

1. O=C(N[C@@H](CC1CCCCC1)C(=O)NCCN1CCCC1)c1ccc(O)c(-c2ccc(Cl)c(Cl)c2)c1 | 99
2. COc1ccc(CN(C)CC(O)COc2ccc(NC(=O)c3cccc4c(=O)c5cccc(OC)c5[nH]c34)cc2)cc1OC (configuration not stated) | 93
3. COc1ccc(Cl)cc1NC(=O)C(C)Nc1ccc(-c2ccccc2)cc1 (configuration not stated) | 91
4. OC1CCCN(Cc2ccc(-c3ccc(-c4nc5ccc(F)cc5[nH]4)s3)cc2)C1 (configuration not stated) | 100
5. O=c1c(NCCCN(Cc2ccc(F)cc2)c2ccccn2)c(NCc2cccnc2)c1=O | 101
6. Cc1cccc2[nH]c(-c3cccc(-c4cccc(C(=O)NCCN5CCCC5)c4)c3)nc12 | 100
7. Cc1cc2nc(-c3ccc(/C=C/C(=O)NCCc4ccccc4)cc3)[nH]c2cc1C | 98
8. O=C(NCCNc1ccnc(Nc2ccc(F)cc2)n1)Nc1ccc2c(c1)OCO2 | 97
9. Cc1nnsc1C(=O)Nc1ccc(-c2cccc(-c3nc4c(C)cccc4[nH]3)c2)cc1 | 98
10. COc1c(Br)cc(Br)cc1-c1ccc(CN2CC3CCC2CC3)[nH]1 | 98
11. O=c1cc(NCCCNCc2cc3c(Cl)cccc3s2)[nH]c2ccccc12 | 102
12. CCN(CC)CCN(Cc1ccc(-c2ccc(C(F)(F)F)cc2)cc1)C(=O)c1c[nH]c2ccc(Br)cc12 | 90
13. Cc1ccccc1C1CCN(C2CCC(NC(=O)c3ccc4c(c3)-c3nocc3C(C)O4)CC2)CC1 (configuration not stated) | 88
14. Clc1ccc(Cc2nc3ccccc3[nH]2)cc1Cl | 98
15. COCC(C)n1c(SC(C)C(=O)Nc2cc([N+](=O)[O-])ccc2Cl)nc2ccccc2c1=O (configuration not stated) | 95
16. Cc1[nH]cnc1CSCCNC(N)=NCCCCCCCCN=C(N)NCCSCc1nc[nH]c1C | 96
17. Cc1cccc2[nH]c(-c3cccc(-c4ccc(NC(=O)C(C)C(=O)NC(C)C)cc4)c3)nc12 (configuration not stated) | 85

* * *

experiment-notes: human hepatoma cell viability loss – ATP luminescence, cytotoxicity control for P. falciparum antimalarial project, primary screen (AID 2303);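 further: 0% = DMSO wells and 100% = digitonin-killed cells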
settings: HepG2 viability, 24-48 h, at 10 µM, stronger effect = higher value
assay-endpoint: inhibition (%)

1) O=C(NCCCN1CCC(Cc2ccccc2)CC1)c1cc2c(Cl)nc3ccccc3c2s1 | 22
2) CCCCN(CCCC)CCOc1cc2c(cc1OC)CCN2C(=O)/C=C/c1ccccc1Cl | 13
3) COc1cc(C(=O)Nc2cccc(-c3nc4ccccc4[nH]3)c2)ccc1OC(C)=O | 16
4) CCCCCCCCc1[nH]c(C)c(Br)c(=O)c1Br | 2
5) Cc1cccc2[nH]c(-c3ccc(-c4ccc(CN5CCN(c6ccc(C#N)cn6)CC5)cc4)s3)nc12 | 10
6) Cc1cnc(NCC2CCCCC2)nc1N[C@@H](CC(C)C)C(=O)Nc1ccccc1 | 12
7) Cc1ccccc1OCCCN1CCN(CC(c2ccc(F)cc2)N2CCN(C(C)C)CC2)CC1 (centres undefined) | 20
8) COc1ccc(-c2ccc(NC(=O)c3cccc(Cl)c3)cc2)cc1CN1CCC(O)CC1 | 15
9) CCc1ccc(CN2CCC(CNC(=O)c3cc(-c4cccc(Cl)c4)cs3)C2)cc1 (centres undefined) | 27
10) CNC(=O)c1cnc(Nc2ccc(OCC(O)CN(C)C)cc2)nc1Nc1cccc(Br)c1 (centres undefined) | 68
11) NC(=O)c1ccc(C(=O)Nc2cccc(-c3cccc(-c4nc5ccc(C(F)(F)F)cc5[nH]4)c3)c2)cc1 | 63
12) CC[C@H](C)CNC(=O)c1cncc(-c2ccc(CNC3Cc4ccccc4C3)cc2)c1 | 14
13) O=C(/C=C/c1ccc(Cl)c(Cl)c1)NCCCCCCN1CCCN(C(=O)Nc2ccc(Cl)c(Cl)c2)CC1 | 25
14) Cc1cc(NN=CC=Cc2ccccc2)c2cc(F)ccc2n1 | 8

* * *

Form field: inhibition (one value per entry).
target-desc: L-lactate dehydrogenase (Plasmodium falciparum (isolate CDC / Honduras))
experiment-notes: PfLDH activity inhibition – cell lysate, 3D7 strain, counter-screen for P. falciparum growth inhibition project (AID 2304);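 further: 0% = vehicle and 100% = reference inhibitor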
settings: P. falciparum 3D7 crude extract, LDH APAD/NBT absorbance; at 2 µM; stronger effect = higher value
assay-endpoint: inhibition (%)

1. CO/C(=C\C=C\c1cc2cc(Cl)c(Cl)cc2[nH]1)C(=O)NCCCN(C)CCN(C)c1ccccc1 | 0
2. Cc1cccc2[nH]c(-c3ccc(-c4ccc(CN5CCN(CCN6CCOCC6)CC5)cc4)cc3)nc12 | -1
3. COc1cc(OC)cc(-c2nn(-c3ccc([N+](=O)[O-])cc3C#N)c(=S)n2CC2CCCO2)c1 (stereo not given) | 0
4. COc1ccc(-c2cnc3ccc(NCc4ccc(S(N)(=O)=O)cc4)nn23)cc1 | -2
5. Cc1ccc(Nc2nc(NN=Cc3cc4c(cc3Br)OCO4)nc(Nc3ccc([N+](=O)[O-])cc3)n2)cc1C | -2

* * *

experiment-notes: human hepatoma cell viability loss – ATP luminescence, cytotoxicity control for P. falciparum antimalarial project, primary screen (AID 2303);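 further: 0% = DMSO wells and 100% = digitonin-killed cells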
settings: HepG2 viability, 24-48 h, at 10 µM, stronger effect = higher value
Label 1.0 when inhibition is strictly below 10%; at or above that, label 0.0.

1. COc1cc(Cc2cnc(N)nc2N)cc(OCCCCC2NC(=O)NC2=O)c1OC (stereo unspecified) | 1.0
2. Cc1cc(=O)c2cc(Oc3ccc(OC(F)(F)F)cc3)ccc2[nH]1 | 0.0
3. Cc1ccc2nc3sc(C(=O)NCCCN4CCC(N5CCCCC5)CC4)cc3cc2c1 | 0.0
4. Cc1ccc2nc(C)cc(NN=Cc3cccc(Cl)c3)c2c1 | 0.0
5. CCNc1cc(C(=O)N[C@@H](Cc2ccccc2)[C@H](O)CN[C@H]2C[C@@H]3CC[C@H]2C3)cc(N2CCCCS2(=O)=O)c1 | 1.0

* * *

Readings of inhibition for the listed molecules
target-desc: L-lactate dehydrogenase (Plasmodium falciparum (isolate CDC / Honduras))
experiment-notes: PfLDH activity inhibition – cell lysate, 3D7 strain, counter-screen for P. falciparum growth inhibition project (AID 2304);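 further: 0% = vehicle and 100% = reference inhibitor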
settings: P. falciparum 3D7 crude extract, LDH APAD/NBT absorbance; at 2 µM; stronger effect = higher value
assay-endpoint: inhibition (%)

1) COc1ccc(CNC(=O)Nc2cc3cc(-c4ccc(CN5CCCC5)cc4)ccc3n3c(C)nnc23)cc1 | -3
2) O=C(Nc1cccc(-c2ccc(-c3nc4ccc(C(F)(F)F)cc4[nH]3)cc2)c1)c1cccnc1 | -9
3) CN1CCC(C(=O)Nc2cccc(-c3cccc(-c4nc5ccc(F)cc5[nH]4)c3)c2)CC1 | 0
4) Cc1ccccc1C1CCN(C2CCC(NC(=O)/C=C/c3cc(F)ccc3C(F)(F)F)CC2)CC1 (stereo unspecified) | 2
5) O=C(Nc1cccc(C(F)(F)F)c1)c1ccc(S(=O)(=O)NC2CCN(CC3CCCCC3)C2)cc1 (stereo unspecified) | -4
6) Cc1cccc2[nH]c(-c3ccc(-c4ccc(CN5CC(C)OC(C)C5)cc4)cc3)nc12 (stereo unspecified) | 3
7) Cc1c(C)n(C2CCCCC2)c2ncnc(OC3CCN(CC(=O)NC4CC4)CC3)c12 | -2
8) N#Cc1ccc(-n2cc(C(=O)Nc3ccc4c(c3)CCN(C3CCC3)CC4)c(C(F)(F)F)n2)cc1 | -2
9) Cc1cc(Nc2ccc(C(C)(C)C)cc2)c2[nH]ncc2n1 | 0
10) O=C(NCc1ccc(Cl)c(Cl)c1)c1ccc(-c2nc3ccc(Cl)cc3[nH]2)cc1 | -6
11) COc1ccc2ccccc2c1C=NNc1ccnc2cc(Cl)ccc12 | -5
